measurement_protocol: NCI Yeast Anticancer Drug Screen. Data for the mlh1 strain (AID 171);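 note: 0% = growth of vehicle-treated control cultures of the same strain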
test_parameters: S. cerevisiae mlh1 strain growth inhibition; at 100.0 µM; stronger effect = higher value
The panel holds about 79,000 compounds, 15% with a hit somewhere; the sample as a whole holds those more often.
Label rule, in plain words: growth inhibition of 90% and up is TRUE, under 90% is FALSE.

Past entries and their recorded results:
{"molecular_string": "c1ccc(N2N=C3N(c4ccccc4)C2N3c2ccccc2)cc1", "label_value": "TRUE"}
{"molecular_string": "Cc1cc(OCc2ccccc2)ccc1[N+](=O)[O-]", "label_value": "FALSE"}

Now turn to the next compound.
Ask | Given CN(NC(=O)/C(=C/c1ccc(O)cc1)NC(=O)c1ccccc1)c1ccnc2cc(Cl)ccc12 , state whether its growth inhibition is at least 90%.
Reply | FALSE

---

measurement_protocol: NCI Yeast Anticancer Drug Screen. Data for the mec2-1 strain (AID 157)
test_parameters: S. cerevisiae mec2-1 strain, at 33.0 µM, stronger effect = higher value
About 79,000 compounds went through this panel and 15% of them were active in at least one assay; those are over-represented in the sample as a whole. Calls of active or inactive are those of the source. Cut-off read from the data, not from the text of the source: active = growth inhibition above about 70%; inactive = the rest.
measured_parameter: growth inhibition

{"molecular_string": "O=C(O)c1[nH]c(=O)c2ccccc2c1Nc1ccccc1", "growth inhibition": "1% (inactive)"}

Ask | Entry under review: Cc1ccc(N=Nc2ccc(O)c(C)c2)cc1 . Reported growth inhibition?
Reply | 97% (active)

Ask | Entry under review: CCNc1ccc2c(c1)C(=O)N(OS(C)(=O)=O)C2=O . Reported growth inhibition?
Reply | 21% (inactive)

---

Each item that follows carries a reported growth inhibition.
measurement_protocol: NCI Yeast Anticancer Drug Screen. Data for the bub3 strain (AID 167)
test_parameters: S. cerevisiae bub3 mutant strain, at 3.7 µM, stronger effect = higher value
Compounds without any hit were thinned out: in the full panel of roughly 79,000, 15% have a hit.
Field: numeric (%). Do not append units.

{"molecule": "CCCCCCSc1nc(COC(=O)NC)c(COC(=O)NC)n1C", "measured_parameter": "growth inhibition", "obs_value": 0}

Ask | Entry under review: Nc1ccc(S(=O)(=O)Nc2ccc(Nc3c4ccccc4nc4ccccc34)cc2)cc1 . Reported growth inhibition?
Reply | 31

Ask | Entry under review: c1ccc(N2N=C3N(c4ccccc4)C2N3c2ccccc2)cc1 . Reported growth inhibition?
Reply | -1

---

measurement_protocol: NCI Yeast Anticancer Drug Screen. Data for the sgs1 mgt1 strain (AID 161);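 note: 0% = growth of cultures given vehicle only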
test_parameters: S. cerevisiae sgs1 mgt1 strain, at 50.0 µM (retest, dose inferred, filed as 5.0), stronger effect = higher value
About 79,000 compounds went through this panel and 15% of them were active in at least one assay; those are over-represented in the sample as a whole. Activity calls are given as the source filed them. Cut-off read from the data, not from the text of the source: active = growth inhibition above about 70%; inactive = the rest.
measured_parameter: growth inhibition

{"compound": "O=C(CNS(=O)(=O)Cc1ccccc1)NNc1ccccc1", "growth inhibition": "71% (active)"}

Ask | Entry under review: O/N=C/C1c2ccccc2-c2ccccc21 . Reported growth inhibition?
Reply | 30% (inactive)

Ask | Entry under review: CCN(CC)CC(O)C1CCC(c2ccccc2)CC1 (stereo not given) . Reported growth inhibition?
Reply | 95% (active)

Ask | Entry under review: NNC(=S)Nc1cccc2ccccc12 . Reported growth inhibition?
Reply | 54% (inactive)

Ask | Entry under review: CC[C@@]1(OC(=O)CCC(=O)O)C(=O)OCc2c1cc1n(c2=O)Cc2cc3ccccc3nc2-1 . Reported growth inhibition?
Reply | 91% (active)

Ask | Entry under review: NC(N)=NCCCS(=O)(=O)Nc1ccc(Nc2c3ccccc3nc3cc([N+](=O)[O-])ccc23)cc1 . Reported growth inhibition?
Reply | 83% (active)

Ask | Entry under review: Cc1ccc(Nc2n[nH]c(=S)s2)cc1 . Reported growth inhibition?
Reply | 91% (active)

Ask | Entry under review: S=c1cn[nH]c2ccc(Br)cc12 . Reported growth inhibition?
Reply | 61% (inactive)

Ask | Entry under review: Clc1c(Cl)c(Cl)c2n[nH]nc2c1Cl . Reported growth inhibition?
Reply | 78% (active)

Provenance of the data: PubChem BioAssay (NCI)
